Tested on: corn
Test: Test B pre/postemergence corn
Assay type: in vivo, Zea mays
Settings: Preemergence, Rate 500 g/ha; scale 0 (no effect) to 10 (complete control)

| COMPOUND | STUDY TARGET | Corn plant response rating |
| --- | --- | --- |
| COc1ccc(-n2c(=O)on(C(=O)N(c3ccc(F)cc3)C(C)C)c2=O)c(C)c1 [Compound 35] | corn | 0 |
| Cc1ccccc1Cn1c(=O)on(C(=O)N(c2ccc(F)cc2)C(C)C)c1=O [Compound 88] | corn | 0 |
| COc1ccc(-n2c(=O)on(C(=O)N(C3=CCOCC3)C(C)C)c2=O)cc1 [Compound 6] | corn | 2 |
| CCN(CC)C(=O)n1oc(=O)n(-c2cccc3c2CCCC3)c1=O [Compound 89] | corn | 0 |
| C=CCn1c(=O)on(C(=O)N(c2ccccc2)C(C)C)c1=O [Compound 93] | corn | 9 |

----------
Listed next: entries and their corresponding Wild oats plant response rating.
System: wild oat
Assay: Test B pre/postemergence wild oat
Assay type: in vivo, Avena fatua
Conditions: Postemergence, Rate 125 g/ha; scale of 0 to 10 where 0 is no effect and 10 is complete control

| COMPOUND | STUDY TARGET | Wild oats plant response rating |
| --- | --- | --- |
| C=CCn1c(=O)on(C(=O)N(c2ccccc2)C(C)C)c1=O [Compound 93] | wild oat | 0 |
| CCN(CC)C(=O)n1oc(=O)n(-c2cccc3c2CCCC3)c1=O [Compound 89] | wild oat | 0 |
| CCc1noc(CC)c1-n1c(=O)on(C(=O)N(c2ccc(F)cc2)C(C)C)c1=O [Compound 102] | wild oat | 0 |
| CC(C)N(C(=O)n1oc(=O)n(C2CCCCC2)c1=O)c1ccc(F)cc1 [Compound 110] | wild oat | 0 |
| C#CCCn1c(=O)on(C(=O)N(c2ccc(F)cc2F)C(C)C)c1=O [Compound 744] | wild oat | 0 |
| C#CCn1c(=O)on(C(=O)N(c2ccc(F)cc2)C(C)C)c1=O [Compound 743] | wild oat | 0 |
| CC(C)N(C(=O)n1oc(=O)n(Cc2cccs2)c1=O)c1ccccc1 [Compound 103] | wild oat | 0 |
| CC(C)N(C(=O)n1oc(=O)n(CCC(=O)N(C)C)c1=O)c1ccccc1 [Compound 671] | wild oat | 0 |

----------
Quick reference for Barnyardgrass plant response rating among some compounds
Tested on: bamyardgrass
Test: Test B flood test barnyardgrass
Assay type: in vivo, Echinochloa crus-galli
Details: Rate 500 g/ha; Pre-emergence; flood test species; scale 0 to 10 (0 no effect, 10 complete control)
READOUT: Barnyardgrass plant response rating

| COMPOUND | STUDY TARGET | READOUT | OBSERVED RESULT |
| --- | --- | --- | --- |
| CC(C)N(C(=O)n1oc(=O)n(CC(=O)OC(C)(C)C)c1=O)c1ccc(F)cc1 [Compound 265] | bamyardgrass | Barnyardgrass plant response rating | 0 |
| Cc1c(-n2c(=O)on(C(=O)N(c3ccc(F)cc3)C(C)C)c2=O)ccc2ccccc12 [Compound 338] | bamyardgrass | Barnyardgrass plant response rating | 9 |
| C=C(Cn1c(=O)on(C(=O)N(c2ccc(F)cc2)C(C)C)c1=O)C[Si](C)(C)C [Compound 256] | bamyardgrass | Barnyardgrass plant response rating | 0 |
| CC(C)N(C(=O)n1oc(=O)n(CCCN(C)C)c1=O)c1ccc(F)cc1 [Compound 323] | bamyardgrass | Barnyardgrass plant response rating | 0 |
| CC(C)N(C(=O)n1oc(=O)n(CCCl)c1=O)c1ccc(Cl)cc1 [Compound 474] | bamyardgrass | Barnyardgrass plant response rating | 0 |
| CC(C)N(C(=O)n1oc(=O)n(C2CC2)c1=O)c1ccc(Cl)cc1 [Compound 241] | bamyardgrass | Barnyardgrass plant response rating | 0 |

----------
Tested on: surinam grass
Test: Test B pre/postemergence surinam grass
Assay type: in vivo, Brachiaria decumbens
Conditions: Rate 250 g/ha; Postemergence
READOUT: Plant response rating (0 to 10; 0 is no effect, 10 is complete control), B. signalgrass

| STRUCTURE SMILES STRING | OBSERVED RESULT |
| --- | --- |
| CC(C)N(C(=O)n1oc(=O)n(CC2(C)COC2)c1=O)c1ccc(F)cc1 | 6 |
| CCCCCC#CCn1c(=O)on(C(=O)N(c2ccc(F)cc2)C(C)C)c1=O | 0 |
| CCCCn1c(=O)on(C(=O)N(c2ccc(F)cc2)C(C)C)c1=O | 8 |
| CC(C)N(C(=O)n1oc(=O)n(CCC(F)=C(F)F)c1=O)c1ccc(F)cc1 | 3 |
| CC(C)N(C(=O)n1oc(=O)n(CC(=O)OC(C)(C)C)c1=O)c1ccc(F)cc1 | 0 |

----------
System: pigweed
Assay: Test B pre/postemergence pigweed
Type: in vivo, Amaranthus retroflexus
Conditions: Rate 62 g/ha, Postemergence; scale of 0 to 10 where 0 is no effect and 10 is complete control
Item-by-item account of Redroot pigweed plant response rating
READOUT: Redroot pigweed plant response rating

| MOLECULE | OBSERVED RESULT |
| --- | --- |
| CCCn1c(=O)on(C(=O)N(c2ccc(Cl)cc2)C(C)C)c1=O [Compound 119] | 0 |
| Cc1ccccc1-n1c(=O)on(C(=O)N(c2ccc(N(C)C)cc2)C(C)C)c1=O [Compound 237] | 0 |
| Cc1nn(C)c(C)c1-n1c(=O)on(C(=O)N(c2ccccc2)C(C)C)c1=O [Compound 120] | 0 |
| CC(C)N(C(=O)n1oc(=O)n(C2CCCCC2C(F)(F)F)c1=O)c1ccc(F)cc1 (stereo not shown) [Compound 99] | 3 |
| Cc1cnn(C)c1-n1c(=O)on(C(=O)N(c2ccc(F)cc2)C(C)C)c1=O [Compound 125] | 0 |
| CC(C)N(C(=O)n1oc(=O)n(CC#C[Si](C)(C)C)c1=O)c1ccc(F)cc1 [Compound 213] | 5 |
| CC(C)N(C(=O)n1oc(=O)n(C2CCCCCC2)c1=O)c1ccc(Cl)cc1 [Compound 339] | 0 |
| CC(C)N(C(=O)n1oc(=O)n(C2CCCCC2)c1=O)c1ccc(Cl)cc1 [Compound 111] | 3 |
| CC(C)N(C(=O)n1oc(=O)n(CC(F)(F)F)c1=O)c1ccc(F)cc1 [Compound 163] | 0 |
| CC(C)C(C)n1c(=O)on(C(=O)N(c2ccc(F)cc2F)C(C)C)c1=O (stereo not shown) [Compound 356] | 0 |

----------
Test system: morningglory
Assay: Test B pre/postemergence morningglory
Type: in vivo, Ipomoea hederacea
Conditions: Postemergence, Rate 125 g/ha; scale 0 to 10, 0 is no effect, 10 is complete control
READOUT: Morningglory plant response rating

| MOLECULE | OBSERVED RESULT |
| --- | --- |
| CCC(=O)Cn1c(=O)on(C(=O)N(c2ccc(Cl)cc2)C(C)C)c1=O [Compound 553] | 0 |
| CC(C)=CCn1c(=O)on(C(=O)N(c2ccc(Cl)cc2)C(C)C)c1=O [Compound 545] | 4 |
| COC(=O)CCCn1c(=O)on(C(=O)N(c2ccccc2)C(C)C)c1=O [Compound 572] | 3 |

----------
System: morningglory
Assay: Test B pre/postemergence morningglory
Type: in vivo, Ipomoea hederacea
Settings: Postemergence, Rate 62 g/ha; scale of 0 to 10, 0 is no effect, 10 is complete control
Listed compounds paired with reported Morningglory plant response rating

| COMPOUND | Morningglory plant response rating |
| --- | --- |
| C=CCCCn1c(=O)on(C(=O)N(c2ccc(F)cc2F)C(C)C)c1=O [Compound 516] | 2 |
| CCOC(=O)C=C(Cn1c(=O)on(C(=O)N(c2ccccc2)C(C)C)c1=O)OCC [Compound 578] | 9 |
| COCn1c(=O)on(C(=O)N(c2ccc(Cl)cc2)C(C)C)c1=O [Compound 533] | 4 |
| CC(C)N(C(=O)n1oc(=O)n(CCCCF)c1=O)c1ccccc1 [Compound 581] | 4 |
| CCOC(=O)C=C(Cn1c(=O)on(C(=O)N(c2ccc(F)cc2F)C(C)C)c1=O)OCC [Compound 519] | 0 |
| CC(C)N(C(=O)n1oc(=O)n(CCC2OCCO2)c1=O)c1ccc(Cl)cc1 [Compound 531] | 2 |
| CCc1nc(C)c(C(C)n2c(=O)on(C(=O)N(c3ccc(Cl)cc3)C(C)C)c2=O)s1 (centres unmarked) [Compound 590] | 2 |
| CCC(=O)Cn1c(=O)on(C(=O)N(c2ccc(Cl)cc2)C(C)C)c1=O [Compound 553] | 0 |

----------
System: wild oat
Assay: Test B pre/postemergence wild oat
Type: in vivo, Avena fatua
Conditions: Rate 250 g/ha; Postemergence
Procedure: […] At the same time, these crop and weed species were also treated with postemergence applications of test chemicals formulated in the same manner. […] Treated plants and controls were maintained in a greenhouse for twelve to sixteen days, after which all species were compared to controls and visually evaluated. […]
Below is a list of entries, each paired with its recorded Plant response rating (0 to 10; 0 is no effect, 10 is complete control), Wild oats value.
READOUT: Plant response rating (0 to 10; 0 is no effect, 10 is complete control), Wild oats

| STRUCTURE SMILES STRING | STUDY TARGET | OBSERVED RESULT |
| --- | --- | --- |
| CC(C)N(C(=O)n1oc(=O)n(CC2(C)COC2)c1=O)c1ccc(F)cc1 | wild oat | 0 |
| Cc1nc(C)c(Cn2c(=O)on(C(=O)N(c3ccc(Cl)cc3)C(C)C)c2=O)s1 | wild oat | 0 |
| Cc1ccccc1-n1c(=O)on(C(=O)N(c2ccc(Cl)cc2F)C(C)C)c1=O | wild oat | 0 |
| COc1nc(OC)nc(N(C(=O)n2oc(=O)n(C(C)C)c2=O)C(C)C)n1 | wild oat | 0 |
| Cc1ccccc1-n1c(=O)on(C(=O)N(c2ccc(N(C)C)cc2)C(C)C)c1=O | wild oat | 0 |
| CC(C)N(C(=O)n1oc(=O)n(CC#C[Si](C)(C)C)c1=O)c1ccc(F)cc1 | wild oat | 2 |
